Where do these numbers come from? They come from ChEMBL document CHEMBL3120058.

Assay: Binding affinity to HCV H genotype 1a N-terminal hexa-histidine-tagged NS3 helicase expressed in Escherichia coli BL21(DE3) assessed as resonance peak2 by STD NMR spectroscopic analysis
Set-up: species or system Hepatitis C virus (isolate H)

| chemical-smiles | value-units | Kd |
| --- | --- | --- |
| COc1ccc([N+](=O)[O-])cc1Cn1cc(CC(=O)O)c2ccc(-c3cc(N)cc(N)c3)cc21 | µM | 28 |

* * *

Experiment: Binding affinity to HCV H genotype 1a N-terminal hexa-histidine-tagged NS3 helicase expressed in Escherichia coli BL21(DE3) in ITC/NMR buffer at pH 7.5 by circular dichroism assay
Design: species or system Hepatitis C virus (isolate H)

| chemical-smiles | Kd (µM) |
| --- | --- |
| COc1ccc([N+](=O)[O-])cc1Cn1cc(CC(=O)O)c2ccc(-c3cc(N)cc(N)c3)cc21 | 41 |
